- System: STK35
- Measurement parameters: concentration: 1 μM, replicates: in singlicate; n = 1;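 also: KINOMEscan kinase panel screen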
Quantity name: %Inh (%)
Answers are plain numbers, in %.

Observe how each entry below is paired with its result.
Compound | %Inh [%]
COC(=O)C(NC(=O)NC1CCN(c2ccnc(Nc3ccc(F)cc3)n2)C1)c1ccccc1 (stereo not shown) [GSK1379712] | 0
COc1ccc2cc(-c3nc(-c4ccccc4C(C)C)[nH]c3-c3ccncc3)ccc2c1 [SB-660566] | 38
NS(=O)(=O)c1cccc(N/C=C2\C(=O)Nc3ccc(S(=O)(=O)Cc4c(Cl)cccc4Cl)cc32)c1 [GSK398099] | 0

Would you mind listing %Inh for each of the following compounds?
1. Cn1cncc1-c1cc2c(Nc3ccc(OCc4ccccc4)cc3)ncnc2cn1 [GW281179]
2. Nc1ncnc2occ(-c3ccc4c(c3)CCN4C(=O)Cc3cc(F)ccc3F)c12 [GSK2645446]
3. O=c1cc(N2CCOCC2)nc2n(Cc3ccccc3F)ccn12 [GSK2297428]
4. Fc1ccc(-c2nc[nH]c2-c2ccncc2)cc1 [SB-217360]
5. COc1cccc(NC(=O)Nc2ccc(C)c(-c3ccc(C(=O)Nc4ccncc4)cc3)c2)c1 [GSK1398474]
6. Cn1cnc2c(N)ncnc21 [SKF-97623]
7. CCn1c(-c2c(N)noc2C)nc2cnccc21 [SB-737856]
8. O=C(Nc1n[nH]c2nc(-c3cccs3)c(Br)cc12)C1CC1 [SB-735297]

Ans:
1: 0; 2: 0; 3: 0; 4: 0; 5: 0; 6: 19; 7: 0; 8: 0

Would you mind listing %Inh for each of the following compounds?
1. CNc1nc(-c2ccc3c(N)n[nH]c3c2)cc(N2C[C@@H](C(=O)Nc3ccccc3)CC[C@H]2C)n1 [GSK2298859]
2. CS(=O)(=O)Cc1ccc(Nc2nccc(-c3c(-c4cccc(NC(=O)C5CCCCC5)c4)nn4ncccc34)n2)cc1 [GSK350559]

Ans:
0
9

Would you mind listing %Inh for each of the following compounds?
1. Nc1cccc(-c2ccc3c(N)n[nH]c3c2)n1 [GSK2192730]
2. COc1ccc(CSc2nnc(-c3ccc4c(c3)CCO4)o2)cc1
3. Cc1cnc(N)c(/C=C/c2cncc(C(=O)NCCc3ccc(Cl)cc3Cl)c2)c1.Cl [GSK190937]
4. Cc1ccc(NC(=O)Nc2ccccc2F)cc1-c1ccc(C(=O)Nc2ccncc2)cc1 [GSK1398477]

Ans:
[0, 0, 0, 21]

====

- Tested on: EPHA8
- Measurement parameters: concentration: 1 μM, replicates: in singlicate; n = 1
Could you please report measured %Inh for the items listed next?
Give bare numbers, in %.

Observe how each entry below is paired with its result.
Molecule | %Inh (%)
CC(C)c1cc(-c2ccc3c(N)n[nH]c3c2)nc(N)n1 [GSK2250882] | 8
COc1ccc(CSc2nnc(-c3ccc4ncsc4c3)o2)cc1C(F)(F)F | 0
CS(=O)(=O)CCNCc1nc(-c2ccc3ncnc(Nc4ccc5c(cnn5Cc5ccccc5)c4)c3c2)cs1.Cl.Cl [GW569716] | 11

Now let's try a different one.
Q: Can you look up the measured %Inh of CC(=O)c1cccc(NC(=O)NC2CCN(c3ccnc(Nc4ccc(F)cc4)n3)C2)c1 (stereo not shown) [GSK1379710] for me?
Ans: 14

====

- Tested on: HIPK2
- Measurement parameters: concentration: 1 μM, replicates: in singlicate; n = 1
Quantity name: %Inh (%)
One number for each entry, in %.

Observe how each entry below is paired with its result.
Compound | Readout number
Nc1ncnc2occ(-c3ccc4c(c3)CCN4C(=O)Cc3cc(F)ccc3F)c12 | 0
Cc1ccc(NC(=O)Nc2ccc(Cl)cc2)cc1-c1ccc(C(=O)Nc2ccncc2)cc1 | 0

Would you mind listing %Inh for each of the following compounds?
1. CC(=O)c1c(C)c2cnc(Nc3ccn(C)n3)nc2n(C2CCCC2)c1=O
2. Cc1ccc(-c2nc(Nc3ccncc3)c3ccccc3n2)s1

Ans:
31
0

Would you mind listing %Inh for each of the following compounds?
1. O=C(Nc1n[nH]c2nc(-c3ccco3)c(Br)cc12)C1CCN(Cc2ccccc2)C1.O=C(O)[C@H](O)[C@@H](O)C(=O)O (stereo not drawn)
2. O=C(Nc1n[nH]c2nc(-c3cccs3)c(Br)cc12)C1CCCC1
3. CS(=O)(=O)CCNCc1nc(-c2ccc3ncnc(Nc4ccc(OCc5ccccc5)c(Cl)c4)c3c2)cs1.Cl
4. CCc1ccc(-c2ccc3c(c2)-c2n[nH]cc2S(=O)(=O)N3C)cc1
5. CN1c2ccc(-c3ccc(C(N)=O)cc3)cc2-c2[nH]ncc2S1(=O)=O
6. COc1ccc(Nc2nccc(N3CCC(NC(=O)C(C)c4ccc(Cl)cc4)C3)n2)cc1 (stereo not drawn)
7. Cc1ccc(NC(=O)c2ccc(Cl)cc2)cc1-c1ccc(C(=O)Nc2ccncc2)cc1
8. Cc1nccc(-c2c(-c3ccc(F)cc3)ncn2CCCN2CCOCC2)n1.Cl

Ans:
1. 32
2. 25
3. 0
4. 0
5. 23
6. 0
7. 0
8. 0

Would you mind listing %Inh for each of the following compounds?
1. CC(C)c1ccc(O)cc1Nc1ccnc2ccc(C(F)(F)F)cc12
2. Cc1c(Cn2c(C)c(C)n3c(=O)cc(N4CCOCC4)nc23)cccc1C(F)(F)F

Ans:
1: 31; 2: 0

Would you mind listing %Inh for each of the following compounds?
1. CSc1ccc(-c2nc3n(c2-c2ccncc2)CCC3)cc1
2. CC(=O)c1c(C)c2cnc(Nc3ccc(N4CCNCC4)cn3)nc2n(C2CCCC2)c1=O
3. CCn1c(-c2c(N)noc2C)nc2cnccc21
4. COc1cc2ncnc(Nc3cccc(Br)c3)c2cc1OC.Cl

Ans:
1. 0
2. 0
3. 0
4. 0

====

- Tested on: EIF2AK1
- Measurement parameters: concentration: 1 μM, replicates: in singlicate; n = 1
Quantity name: %Inh (%)
Numbers only, in %.

Would you mind listing %Inh for each of the following molecules?
1. COC(=O)C(Cc1ccccc1)NC(=O)NC1CCN(c2ccnc(Nc3ccc(F)cc3)n2)C1 (centres unmarked) [GSK1379714]
2. O=C(Nc1n[nH]c2nc(-c3ccco3)c(Br)cc12)C1CCN(Cc2ccccc2)C1.O=C(O)[C@H](O)[C@@H](O)C(=O)O (centres unmarked) [SB-742034]
3. CC(=O)c1cccc(NC(=O)NC2CCN(c3ccnc(Nc4ccc(F)cc4)n3)C2)c1 (centres unmarked) [GSK1379710]
4. FC(F)(F)c1ccccc1-c1cc(-c2c[nH]nc2-c2ccccn2)ccn1 [GW679396]
5. COc1ccc(-c2coc3ccc(-c4nnc(C)o4)cc23)cc1
6. COc1cccc(C2=C(Nc3cc(Cl)c(O)c(Cl)c3)C(=O)NC2=O)c1 [SB-390767]

Ans:
[0, 33, 0, 0, 0, 0]

Would you mind listing %Inh for each of the following molecules?
1. Cc1ccc(NC(=O)Nc2ccc(Cl)c(C(F)(F)F)c2)cc1-c1ccc(C(=O)Nc2ccncc2)cc1 [GSK1398470]
2. Cl.Cl.Cl.N#Cc1ccc(CCNc2nccc(-c3cccc(CN4CCNCC4)c3)n2)cc1 [GSK2137462]
3. CCn1c(-c2ccccc2)nc2cnccc21 [SB-733416]
4. Cc1ccccc1Cn1ccn2c(=O)cc(N3CCOCC3)nc12 [GSK2269905]
5. COc1ccc(Nc2nccc(N3CCC(NC(=O)C(C)c4ccc(Cl)cc4)CC3)n2)cc1 (centres unmarked) [GSK1379812]
6. COc1cc2ncnc(Nc3cccc(Br)c3)c2cc1OC.Cl [GI230329]
7. O=C(Nc1n[nH]c2cc(-c3ccsc3)ccc12)C1CC1 [SB-732932]
8. COc1cccc(CNC(=O)NC2CCN(c3ccnc(Nc4ccc(F)cc4)n3)C2)c1 (centres unmarked) [GSK1379723]

Ans:
1: 78; 2: 2; 3: 0; 4: 8; 5: 0; 6: 47; 7: 0; 8: 0

Would you mind listing %Inh for each of the following molecules?
1. Nc1nccc(-c2c(-c3ccc(F)cc3)ncn2C2CCN(Cc3ccccc3)CC2)n1 [SB-219980]
2. Cc1nccc(-c2c(-c3ccc(F)cc3)ncn2CCCN2CCOCC2)n1.Cl [SB-282975]
3. Cc1ccc(NC(=O)Nc2ccccc2F)cc1-c1ccc(C(=O)Nc2ccncc2)cc1 [GSK1398477]
4. COc1ccc(Nc2nccc(N3CCC(NC(=O)C(C)c4ccc(Cl)cc4)C3)n2)cc1 (centres unmarked) [GSK1379735]
5. Cc1cccc2c(-c3ccncn3)c(-c3ccc(F)cc3)nn12 [GW515532]
6. CSc1ccc(-c2nc3n(c2-c2ccncc2)CCC3)cc1 [SKF-105561]

Ans:
1. 0
2. 14
3. 0
4. 77
5. 0
6. 0

Would you mind listing %Inh for each of the following molecules?
1. CS(=O)(=O)CCNCc1nc(-c2ccc3ncnc(Nc4ccc5c(cnn5Cc5ccccc5)c4)c3c2)cs1.Cl.Cl [GW569716]
2. CC[C@@H]1CO[C@H](C(=O)Nc2ccccc2)CN1c1cc(-c2ccc3c(N)n[nH]c3c2)nc(NC)n1 [GSK2376236]
3. CC(C)c1cc(-c2ccc3c(N)n[nH]c3c2)nc(N)n1 [GSK2250882]
4. Cc1ccc(NC(=O)Nc2ccc(Cl)cc2)cc1-c1ccc(C(=O)Nc2ccncc2)cc1 [GSK1398472]
5. NS(=O)(=O)c1cccc(N/C=C2\C(=O)Nc3ccc(S(=O)(=O)Cc4c(Cl)cccc4Cl)cc32)c1 [GSK398099]
6. COc1ccc(CSc2nnc(-c3ccc4ncsc4c3)o2)cc1C(F)(F)F

Ans:
1. 0
2. 0
3. 12
4. 0
5. 0
6. 0

Would you mind listing %Inh for each of the following molecules?
1. O=C(Nc1n[nH]c2nc(-c3cccs3)c(Br)cc12)C1CCCC1 [SB-743341]
2. COc1ccc2cc(-c3nc(-c4ccccc4C(C)C)[nH]c3-c3ccncc3)ccc2c1 [SB-660566]
3. Cn1cncc1-c1cc2c(Nc3ccc(OCc4ccccc4)cc3)ncnc2cn1 [GW281179]
4. Cn1cncc1C(=O)NC1CCN(c2ccnc(Nc3ccc(F)cc3)n2)C1 (centres unmarked) [GSK1379717]
5. COC(=O)c1cccc(NC(=O)NC2CCN(c3ccnc(Nc4ccc(OC)cc4)n3)C2)c1 (centres unmarked) [GSK1379746]

Ans:
31
3
0
3
0

Would you mind listing %Inh for each of the following molecules?
1. COc1ccc(CSc2nnc(-c3ccc4c(c3)CCO4)o2)cc1
2. CC(=O)c1c(C)c2cnc(Nc3ccc(N4CCNCC4)cn3)nc2n(C2CCCC2)c1=O

Ans:
0
0

Would you mind listing %Inh for each of the following molecules?
1. O=C1NC(=O)C(c2ccc(Cl)cc2)=C1Nc1ccc(O)cc1 [SB-340867]
2. Cn1cnc2c(N)ncnc21 [SKF-97623]
3. c1ccc(-c2ccnc3[nH]ccc23)cc1 [SB-693578]
4. COc1ccc(Nc2nccc(N3CCC(NC(=O)c4cc5ccccc5s4)C3)n2)cc1 (centres unmarked) [GSK1379738]
5. COc1nccc(-c2c(-c3ccc(F)cc3)ncn2CCCN2CCOCC2)n1 [SB-282852]

Ans:
0
0
6
0
8
